Values from PubChem BioAssay (NCI)

Assay: NCI Yeast Anticancer Drug Screen. Data for the wt1 strain (AID 149);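 further: 0% = growth of vehicle-treated wt1 cultures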
Conditions: S. cerevisiae wt1 strain (SPY 50644) growth inhibition; at 3.7 µM; stronger effect = higher value
This is part of a sample that, as a whole, favours compounds with a hit. Of some 79,000 tested, about 15% had one in any assay.
result-type: growth inhibition (%)
One number for each entry, in %.

Use these answered entries as a reference point.
{"compound": "O=C1OC(c2ccc(Cl)cc2)Sc2ccccc21 (centres undefined)", "value-unit": "%", "assay-value": 6}
{"compound": "CN(C)c1ccc(/C=C/c2ccnc3ccc4ccccc4c23)cc1", "value-unit": "%", "assay-value": -9}
{"compound": "Cc1c2ccncc2c(C)c2c1oc1ccccc12", "value-unit": "%", "assay-value": 2}

# batch size: 5; output growth inhibition per entry
1. O=S(=O)(CCC[C@H]1[C@@H](CCOCc2ccccc2)C2CCCN1O2)c1ccccc1 (some centres undefined)
2. Cc1ccc(SSc2ccc(C)cc2[N+](=O)[O-])c([N+](=O)[O-])c1
3. O=S(=O)(O)c1ccc2c(N=Nc3c(O)ccc4ccccc34)cccc2c1
4. CCOC(=O)/C=C1\CCCn2c1ncc(C(=O)OCC)c2=O
5. CC1=NN(C(=O)CC(=O)N(C(=O)c2ccccc2)c2ccc(Cl)cc2)C(=O)C1N=Nc1ccc([N+](=O)[O-])cc1 (centres undefined)

Response:
[2, 4, 1, 5, -1]
